# MEASURED TARGET: ERO1-like protein alpha (Homo sapiens, UniProt Q96HE7, C104A/C131A/C166A)
# Sequence (Q96HE7 whole entry C104A/C131A/C166A, the tested form may be a part): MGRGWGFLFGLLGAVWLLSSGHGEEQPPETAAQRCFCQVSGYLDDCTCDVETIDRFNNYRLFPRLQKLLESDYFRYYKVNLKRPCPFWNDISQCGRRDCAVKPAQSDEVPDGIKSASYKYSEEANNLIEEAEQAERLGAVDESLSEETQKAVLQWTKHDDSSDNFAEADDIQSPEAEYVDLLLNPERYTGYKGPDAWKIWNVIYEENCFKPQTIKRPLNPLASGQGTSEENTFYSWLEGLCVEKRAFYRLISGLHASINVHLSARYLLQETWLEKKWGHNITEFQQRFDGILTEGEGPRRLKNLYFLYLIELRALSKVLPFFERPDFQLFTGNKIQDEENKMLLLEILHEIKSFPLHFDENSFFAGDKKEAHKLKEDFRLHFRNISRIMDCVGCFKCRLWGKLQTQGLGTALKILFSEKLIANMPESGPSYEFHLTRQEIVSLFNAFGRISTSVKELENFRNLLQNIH
# PROTOCOL DESCRIPTION: Inhibition of recombinant human Ero1Lalpha C104A/C131A/C166A triple mutant (22 to 468 residues) expressed in Escherichia coli BL21(DE3)-RIL measured after 30 mins by Amplex red dye based fluorescence assay
ENDPOINT NAME: IC50 (µM)

{"STRUCTURE SMILES": "O=C(O)c1cc(N2N=C(C(F)(F)F)/C(=C/c3ccc(-c4ccccc4)o3)C2=O)ccc1Cl", "MEASUREMENT UNIT": "µM", "IC50": 12.7}
{"STRUCTURE SMILES": "[N-]=[N+]=Nc1cccc(-c2ccc(/C=C3/C(=O)N(c4ccc(Cl)c(C(=O)O)c4)N=C3C(F)(F)F)o2)c1", "MEASUREMENT UNIT": "µM", "IC50": 12.2}
